Reference for the values: patent US20220331391A1

MEASUREMENT PARAMETERS: mouse, in vivo, po, 50 mg/kg
READOUT LABEL: T 1/2 (h)

1. C[C@@H]([C@H](N)C(=O)N[C@H](C(=O)O)[C@H]1O[C@@H](n2ccc(=O)[nH]c2=O)[C@H](O)[C@@H]1O)[C@H](O)c1ccc(O)cn1
2.61
